- target under test: alkaline phosphatase (Bos taurus, UniProt P19111)
- Sequence (P19111 20-506 limits assumed): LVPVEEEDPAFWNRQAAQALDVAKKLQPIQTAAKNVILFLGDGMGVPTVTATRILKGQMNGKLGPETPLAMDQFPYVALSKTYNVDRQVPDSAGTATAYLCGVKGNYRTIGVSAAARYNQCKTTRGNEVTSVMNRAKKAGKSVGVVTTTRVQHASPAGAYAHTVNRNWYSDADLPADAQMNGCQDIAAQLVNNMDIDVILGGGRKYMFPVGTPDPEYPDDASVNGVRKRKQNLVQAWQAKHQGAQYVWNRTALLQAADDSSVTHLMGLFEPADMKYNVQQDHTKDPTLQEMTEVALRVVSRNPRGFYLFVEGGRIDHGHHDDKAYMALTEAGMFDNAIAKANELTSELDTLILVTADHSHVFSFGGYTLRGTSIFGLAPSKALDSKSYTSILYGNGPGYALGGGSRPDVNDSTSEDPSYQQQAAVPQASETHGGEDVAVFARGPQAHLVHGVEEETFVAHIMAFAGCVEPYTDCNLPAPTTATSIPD
- protocol description: Chemiluminescent signal and signal:background with enhancer polymers (Example XVII)
- Format: biochemical
- measurement context: polymer DMQ TEQ; 5 min
parameter measured: S/N
// keep it numeric: no unit symbol after the value

COC1(c2cccc(OP(=O)(O)O)c2)OOC12C1CC3CC(C1)CC2C3 (stereo not shown) [AMPPD, reference compound]    133.9

stdin: Test system alkaline phosphatase (Bos taurus, UniProt P19111); read-out S/N; what value for COC1(c2cccc(OP(=O)(O)O)c2)OOC12C1CC3CC2CC(Cl)(C3)C1 (stereo not shown) ?
stdout: 514.6

stdin: Test system alkaline phosphatase (Bos taurus, UniProt P19111); read-out S/N; what value for COC1(c2cccc(OP(=O)(O)O)c2)OOC12C1CC3CC2CC(O)(C3)C1 (single isomer, unassigned) [B-OH-AMPPD] ?
stdout: 63.3

stdin: Test system alkaline phosphatase (Bos taurus, UniProt P19111); read-out S/N; what value for COC1(c2cccc(OP(=O)(O)O)c2)OOC12C1CC3CC2CC(O)(C3)C1 (single isomer, unassigned) [A-OH-AMPPD] ?
stdout: 189.7

Every entry's value here was drawn from patent US5326882A.
